# tested.on: T1, human tumor necrosis factor-α (rHuTNF-alpha, Biosource) (human, UniProt P01375 77-233)
# T1 construct: Bought recombinant protein coated on ELISA plates; The TNFα of the Biacore assay is not described further; also called TNFα; human TNFα
# measurement.protocol: solid-phase ELISA, Fab lysate on coated rHuTNF-alpha
recorded.endpoint: binding result

Sure, the documented binding result for SEQ ID NO 179 (Fab, V domains shown, Fab, E. coli lysate) VH: EVQLTESGGGLVQPGGSLRLSCAASQFTFSNHWMNWVRQAPGKGLEWIGEIRSKSSNGATHYAESVKGRFIISRDDNGTSLTLEMNSLKTEDTAEYYCARNYYGSTPDYWGQGTLVTVS VL: EIVLTQSPDFQSVTPKEKVTITCRASQFVGSSIHWYQQKPDQSPKLLIKYASESMSGVPSRFSGSGSGTDFTFTISSLEAEDAATYYCQQSHSWPFTFGPGTKVDIK is binds

Sure, the documented binding result for SEQ ID NO 135 (Fab, V domains shown, Fab, E. coli lysate) VH: EVQLVESGGGLVQPGGSLRLSCAASQSIFSNHWMNWVRQAPGKGLEWIGEIRSKSSNSATSYAESVKGRFIISRDGNKTDLYLEMNSLKTEDTAEYYCAQNYYGSTYDYWGQGTLVTVS VL: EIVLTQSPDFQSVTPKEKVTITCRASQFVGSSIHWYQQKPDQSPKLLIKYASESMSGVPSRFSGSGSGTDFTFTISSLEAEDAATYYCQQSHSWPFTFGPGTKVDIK is binds

Sure, the documented binding result for SEQ ID NO 91 (Fab, V domains shown, Fab, E. coli lysate) VH: EVQLTESGGGLVQPGGSLRLSCAASQSIFSNHYMNWVRQAPGKGLEWIGEIRSKSINSATHYAESVKGRFIISRDGNKNDLYLEMNSLKTEDTAEYYCARNYYGSTPDYWGQGTLVTVS VL: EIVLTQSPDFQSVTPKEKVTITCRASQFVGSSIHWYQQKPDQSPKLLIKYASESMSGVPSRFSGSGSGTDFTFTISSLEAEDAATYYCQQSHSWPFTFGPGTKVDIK is binds
